# key: entry, value: pKi
molecular target: Cloned Human Dopamine D3 Receptors (Homo sapiens, UniProt P35462); construct: expressed in transfected cells; membrane homogenate; assay: [N-Methyl-3H]Spiroperidol binding to cloned human dopamine D3 receptors; settings: read-out: D3 Ki
Sequence (P35462 whole entry): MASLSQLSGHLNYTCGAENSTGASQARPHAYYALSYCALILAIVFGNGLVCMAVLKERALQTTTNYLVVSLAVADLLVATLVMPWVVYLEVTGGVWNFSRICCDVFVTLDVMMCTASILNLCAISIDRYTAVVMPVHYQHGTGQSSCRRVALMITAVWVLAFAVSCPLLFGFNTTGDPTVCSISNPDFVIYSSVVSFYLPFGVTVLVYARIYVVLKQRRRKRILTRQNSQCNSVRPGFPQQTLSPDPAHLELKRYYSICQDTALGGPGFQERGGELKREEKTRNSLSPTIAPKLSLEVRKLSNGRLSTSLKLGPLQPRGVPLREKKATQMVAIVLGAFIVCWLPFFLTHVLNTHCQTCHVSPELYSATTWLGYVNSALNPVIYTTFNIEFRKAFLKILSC
Scale: negative log10 of molar concentration, which is what pKi denotes.

Check out these entries, answers already filled in.
{"chemical.smiles": "O=C(NCCCc1ccncc1)[C@@H]1C[C@H]1CN1CCC(c2noc3ccsc23)CC1", "target.or.test.system": "Cloned Human Dopamine D3 Receptors (Homo sapiens, UniProt P35462)", "pKi": 8.38}
{"chemical.smiles": "COc1cccc2c(C3CCN(C[C@@H]4C[C@H]4C(=O)N4CCC(Oc5ccc(F)cc5)CC4)CC3)noc12", "target.or.test.system": "Cloned Human Dopamine D3 Receptors (Homo sapiens, UniProt P35462)", "pKi": 6.72}
{"chemical.smiles": "O=C(NCCCc1ccccc1)[C@@H]1C[C@H]1CN1CCC(c2cc3ccccc3s2)CC1", "target.or.test.system": "Cloned Human Dopamine D3 Receptors (Homo sapiens, UniProt P35462)", "pKi": 7.77}

Consider the compound shown here: COc1ccc2c(c1)c(N1CCN(C[C@@H]3C[C@H]3C(=O)N[C@H]3CC[C@H](O)CC3)CC1)nn2-c1ccc(C(F)(F)F)cc1 What is its recorded pKi?
7.54

* * *

biological target: Cloned Human Dopamine D3 Receptors (Homo sapiens); construct: expressed in transfected cells; membrane homogenate; assay: [N-Methyl-3H]Spiroperidol binding to cloned human dopamine D3 receptors; conditions: read-out: d3Ki
Field: label. Allowed values: 1 (Ki < 20 nM) or -1 (Ki >= 20 nM).

Worked set:
{"compound": "O=C(NCc1ccccc1)[C@@H]1CCCC[C@@H]1CN1CCN(c2csc3cc(C(F)(F)F)ccc23)CC1 [compound 826106]", "discrete.label": -1}
{"compound": "CC1CCCC(NC(=O)[C@@H]2C[C@H]2CN2CCCN(c3csc4cc(F)ccc34)CC2)C1 (some centres unmarked) [compound 826867]", "discrete.label": 1}
{"compound": "C[C@H]1CC[C@H](NC(=O)[C@@H]2C[C@H]2CN2CCN(c3ccc(C(F)(F)F)cn3)CC2)CC1 [compound 827182]", "discrete.label": -1}
{"compound": "O=C(NCc1cccnc1)[C@@H]1CCC[C@H]1N1CCN(c2csc3cc(F)ccc23)CC1 [825834G]", "discrete.label": 1}
{"compound": "C[C@H]1CC[C@H](NC(=O)[C@@H]2C[C@H]2CN2CCN(c3ccc(C(F)(F)F)cc3Cl)CC2)CC1 [compound 827181]", "discrete.label": -1}

Does the reported Ki of the following compound sit strictly below 20 nM? CC[C@H]1CC[C@H](NC(=O)[C@@H]2C[C@H]2CN2CCN(c3cccc(C)c3)CC2)CC1 [compound 827219]
1

Does the reported Ki of the following compound sit strictly below 20 nM? O=C(Nc1cccnc1)[C@@H]1CCCC[C@H]1CN1CCN(c2csc3cc(C(F)(F)F)ccc23)CC1 [compound 826100]
-1

Does the reported Ki of the following compound sit strictly below 20 nM? O=C(NC1CCCCC1)[C@@H]1C[C@H]1CN1CCCN(c2csc3cc(F)ccc23)CC1 [compound 826881]
1

* * *

Target: Cloned Human Dopamine D3 Receptors (Homo sapiens)
Construct: expressed in transfected cells; membrane homogenate
Assay: [N-Methyl-3H]Spiroperidol binding to cloned human dopamine D3 receptors
Conditions: read-out: d3Ki
Experimental: [N-Methyl-^3H]Spiroperidol Binding to Cloned Human Dopamine D3 Receptors […] A 200 µl sample membrane homogenate is added to 200 µl of 1% SDS, vortexed and allowed to stand for 5 min. Aliquots (25, 50 and 100 µl) of this mixture are assayed in duplicate following the standard Bio-Rad DC protein assay protocol (kit catalog number 500-0112) and using reagent S. Absorbance readings are made at 750 nm (note: the most accurate protein OD readings are between 0.1-0.5 units). […]
# key: entry, value: Ki
Value expressed in nM; do not type the unit.

{"molecule": "C[C@H]1CC[C@H](NC(=O)[C@@H]2C[C@H]2CN2CCN(c3ccccc3)CC2)CC1 [compound 827191]", "readout": "Ki", "reported": 0.724}

Consider the molecule shown here: C[C@H]1CC[C@H](NC(=O)[C@@H]2C[C@H]2CN2CCN(c3csc4cc(F)ccc34)CC2)CC1 [compound 826665] What is its recorded Ki?
1.9

Consider the molecule shown here: Cc1ccc(C)c(N2CCN(C[C@@H]3C[C@H]3C(=O)N[C@H]3CC[C@H](C)CC3)CC2)c1 [compound 827186] What is its recorded Ki?
8.21

Consider the molecule shown here: O=C(NC1CCCC1)[C@@H]1C[C@H]1CN1CCCN(c2csc3cc(C(F)(F)F)ccc23)CC1 [compound 826684] What is its recorded Ki?
7.9

Consider the molecule shown here: CC[C@H]1CC[C@H](NC(=O)[C@@H]2C[C@H]2CN2CCN(c3ccccn3)CC2)CC1 [compound 827214] What is its recorded Ki?
6.13

Consider the molecule shown here: Cc1cccc(N2CCN(C[C@@H]3C[C@H]3C(=O)N[C@H]3CC[C@H](C)CC3)CC2)c1 [compound 827180] What is its recorded Ki?
2.47

Consider the molecule shown here: CC[C@H]1CC[C@H](NC(=O)[C@@H]2C[C@H]2CN2CCN(c3ccccc3)CC2)CC1 [compound 827230] What is its recorded Ki?
2.09
